- target.of.assay: Lsa-nAChR1 (α1α2β1β2) (Lepeophtheirus salmonis, UniProt A0A7S5PZ05+A0A7S5Q3W4+A0A7S5Q7H3+A0A7S5U9A3)
- Sequence (A0A7S5PZ05 entry or part of it): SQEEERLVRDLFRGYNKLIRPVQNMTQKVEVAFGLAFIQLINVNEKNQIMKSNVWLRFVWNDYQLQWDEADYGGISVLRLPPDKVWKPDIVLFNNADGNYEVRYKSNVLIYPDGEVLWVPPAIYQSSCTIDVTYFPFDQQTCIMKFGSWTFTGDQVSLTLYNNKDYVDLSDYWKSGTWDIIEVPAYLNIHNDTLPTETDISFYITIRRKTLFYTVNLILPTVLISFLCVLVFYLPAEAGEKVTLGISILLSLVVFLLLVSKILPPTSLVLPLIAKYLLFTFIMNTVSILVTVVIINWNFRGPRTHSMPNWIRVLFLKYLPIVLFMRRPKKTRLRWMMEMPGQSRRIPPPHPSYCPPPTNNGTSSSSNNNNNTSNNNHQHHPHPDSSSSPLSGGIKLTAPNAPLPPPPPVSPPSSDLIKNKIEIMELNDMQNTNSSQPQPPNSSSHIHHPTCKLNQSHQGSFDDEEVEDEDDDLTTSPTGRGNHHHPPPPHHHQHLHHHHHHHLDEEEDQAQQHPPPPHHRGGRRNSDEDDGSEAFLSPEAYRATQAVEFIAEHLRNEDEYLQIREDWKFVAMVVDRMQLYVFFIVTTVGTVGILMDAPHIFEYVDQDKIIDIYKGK
- Sequence (A0A7S5Q3W4 entry or part of it): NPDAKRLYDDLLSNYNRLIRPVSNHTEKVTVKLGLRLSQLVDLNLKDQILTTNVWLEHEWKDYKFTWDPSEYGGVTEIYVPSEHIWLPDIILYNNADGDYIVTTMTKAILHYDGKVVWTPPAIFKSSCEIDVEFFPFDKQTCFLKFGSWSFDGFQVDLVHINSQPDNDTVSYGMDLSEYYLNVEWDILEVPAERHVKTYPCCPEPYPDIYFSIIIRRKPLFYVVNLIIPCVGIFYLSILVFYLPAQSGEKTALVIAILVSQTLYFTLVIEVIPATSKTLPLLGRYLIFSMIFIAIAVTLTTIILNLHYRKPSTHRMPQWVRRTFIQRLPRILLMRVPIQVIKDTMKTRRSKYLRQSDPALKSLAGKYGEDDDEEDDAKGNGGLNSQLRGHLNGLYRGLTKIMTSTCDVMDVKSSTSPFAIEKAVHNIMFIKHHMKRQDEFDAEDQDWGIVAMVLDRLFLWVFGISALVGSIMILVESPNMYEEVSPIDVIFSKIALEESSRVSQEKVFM
- Sequence (A0A7S5U9A3 entry or part of it): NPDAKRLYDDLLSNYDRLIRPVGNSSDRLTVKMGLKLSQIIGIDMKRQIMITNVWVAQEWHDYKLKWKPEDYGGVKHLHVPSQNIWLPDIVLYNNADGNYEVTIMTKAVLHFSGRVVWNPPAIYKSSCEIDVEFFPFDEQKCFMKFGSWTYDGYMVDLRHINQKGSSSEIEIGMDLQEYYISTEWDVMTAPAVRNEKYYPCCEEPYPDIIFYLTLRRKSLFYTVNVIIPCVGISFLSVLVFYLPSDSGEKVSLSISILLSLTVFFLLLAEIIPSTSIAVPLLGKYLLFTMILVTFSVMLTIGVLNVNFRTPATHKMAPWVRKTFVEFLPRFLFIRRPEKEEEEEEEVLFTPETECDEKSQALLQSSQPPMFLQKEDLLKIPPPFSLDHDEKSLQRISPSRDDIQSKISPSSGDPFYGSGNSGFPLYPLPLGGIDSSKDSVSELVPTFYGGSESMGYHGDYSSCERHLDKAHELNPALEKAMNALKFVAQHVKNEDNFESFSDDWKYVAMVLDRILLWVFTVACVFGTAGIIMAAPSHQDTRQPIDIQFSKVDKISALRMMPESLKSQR
- Sequence (A0A7S5Q7H3 entry or part of it): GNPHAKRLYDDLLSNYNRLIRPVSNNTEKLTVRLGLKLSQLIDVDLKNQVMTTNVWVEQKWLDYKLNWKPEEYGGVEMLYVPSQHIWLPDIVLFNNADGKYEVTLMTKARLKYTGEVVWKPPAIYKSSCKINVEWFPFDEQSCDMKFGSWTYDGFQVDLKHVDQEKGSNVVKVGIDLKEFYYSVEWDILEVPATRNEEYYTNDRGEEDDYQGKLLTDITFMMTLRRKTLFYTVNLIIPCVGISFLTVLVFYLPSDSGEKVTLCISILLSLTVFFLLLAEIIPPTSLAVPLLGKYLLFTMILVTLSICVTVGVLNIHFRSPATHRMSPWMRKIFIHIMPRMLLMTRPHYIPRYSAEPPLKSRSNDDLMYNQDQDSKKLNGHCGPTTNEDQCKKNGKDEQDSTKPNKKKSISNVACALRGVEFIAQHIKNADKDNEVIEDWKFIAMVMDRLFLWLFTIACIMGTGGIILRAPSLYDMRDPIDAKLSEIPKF
- test.details: cell-based
- Format: cell-based
- settings: dose-response, 1:1 (α:β) ratio
result.type: type of effect on the receptor (agonist / partial-agonist / no effect)

Here's what some known entries look like.
{"molecule": "CN/C(=N/CC1CCOC1)N[N+](=O)[O-] (stereo not shown)", "result": "partial-agonists"}
{"molecule": "N#C/N=C1\\SCCN1Cc1ccc(Cl)nc1", "result": "partial-agonist"}
{"molecule": "C/C(=N\\C#N)N(C)Cc1ccc(Cl)nc1", "result": "partial-agonist"}
{"molecule": "CN/C(=N\\[N+](=O)[O-])NCc1cnc(Cl)s1", "result": "partial-agonists"}
{"molecule": "CN1CCC[C@H]1c1cccnc1", "result": "partial-agonist"}

# next molecule below
Entry CCN(Cc1ccc(Cl)nc1)/C(=C/[N+](=O)[O-])NC : reported type of effect on the receptor (agonist / partial-agonist / no effect) = ?
partial-agonists

* * *

- target.of.assay: Lsa-nAChR1 (α1α2β1β2) (Lepeophtheirus salmonis, UniProt A0A7S5PZ05+A0A7S5Q3W4+A0A7S5Q7H3+A0A7S5U9A3)
- test.details: cell-based
- Format: cell-based
- settings: read-out: Max peak (% Ach)
- Method: Capped cRNAs were synthesized (T7 mMessage mMachine kit, Ambion, Austin, TX, USA) from the linearized vectors containing the different subunits according to the manufacturer’s protocol. cRNA samples were stored at -80°C until use. Oocytes were ordered from Ecocyte (Germany). […] Oocytes were impaled with two electrodes filled with 3 M KCl, and their membrane potentials were maintained at -80 mV throughout the experiment. […] EC50 values were determined from the mean of at least 3 or more cells. […]
// values below are reported Emax
Note: state the figure and append the unit.

Here's what some known entries look like.
{"smiles.repr": "CN1CCC[C@H]1c1cccnc1", "result.type": "Emax", "result": "27.9%"}
{"smiles.repr": "C/C(=N\\C#N)N(C)Cc1ccc(Cl)nc1", "result.type": "Emax", "result": "34.1%"}

# next compound below
Entry N#C/N=C1\SCCN1Cc1ccc(Cl)nc1 : reported Emax = ?
6.1%
